Molecular target: T1, IRP1 (iron regulatory protein 1) (rabbit, UniProt Q01059 1-889)
T1 sequence: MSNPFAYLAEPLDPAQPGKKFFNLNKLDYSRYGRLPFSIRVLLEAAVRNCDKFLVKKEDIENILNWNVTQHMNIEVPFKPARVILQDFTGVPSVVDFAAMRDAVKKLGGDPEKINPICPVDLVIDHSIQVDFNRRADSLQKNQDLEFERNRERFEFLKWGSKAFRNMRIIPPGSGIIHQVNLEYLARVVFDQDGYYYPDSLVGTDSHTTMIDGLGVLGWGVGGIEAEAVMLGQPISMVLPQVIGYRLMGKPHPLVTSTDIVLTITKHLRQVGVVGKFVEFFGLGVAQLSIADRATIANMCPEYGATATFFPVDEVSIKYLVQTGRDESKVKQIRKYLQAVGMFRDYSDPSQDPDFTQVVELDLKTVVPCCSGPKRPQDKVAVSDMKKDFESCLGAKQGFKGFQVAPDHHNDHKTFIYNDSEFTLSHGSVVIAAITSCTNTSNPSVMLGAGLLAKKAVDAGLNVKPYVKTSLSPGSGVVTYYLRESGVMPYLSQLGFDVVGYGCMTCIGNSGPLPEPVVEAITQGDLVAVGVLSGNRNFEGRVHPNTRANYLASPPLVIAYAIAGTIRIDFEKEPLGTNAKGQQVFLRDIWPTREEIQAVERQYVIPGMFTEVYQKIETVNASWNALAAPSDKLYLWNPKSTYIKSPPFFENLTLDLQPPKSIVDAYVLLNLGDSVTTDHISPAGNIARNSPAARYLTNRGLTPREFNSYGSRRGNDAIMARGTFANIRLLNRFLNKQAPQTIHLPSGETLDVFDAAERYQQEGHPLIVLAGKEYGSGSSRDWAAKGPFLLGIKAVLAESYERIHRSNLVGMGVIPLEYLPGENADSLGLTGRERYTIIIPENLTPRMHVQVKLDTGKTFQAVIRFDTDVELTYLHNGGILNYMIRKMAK
Assay: stopped-flow fluorescence anisotropy (koff/kon); no Mn2+, 100 mM KCl; kon 51.5 uM-1 s-1, koff 7.0 s-1; 40 mM HEPES pH 7.2, 100 mM KCl, 1 mM MgCl2 (Methods; not listed in the Figure 2 legend), 5% glycerol, 2% 2-mercaptoethanol, 25 C; RNA 50 nM with IRP1 0.05-1 uM; eIF4F 0.1 uM with RNA 0.1-0.5 uM
Details: protein: recombinant; tags: Ni-chelate purified; hairpin with mid-helix bulge C and hexaloop
observed.property: Kd

The recorded Kd for CCUCAUCUUUGUCAGUGCACAAAAUGGCG (structured_RNA) [ACO2 IRE-RNA, fluorescein labeled (FIACO2 IRE-RNA)] is 136 nM

Values compiled from paper PMC4041422.
